Sourced from patent US6590118B1

MEASURED QUANTITY: melting point

>  <MOLECULE>
O=C(Cc1ccc(O)c([N+](=O)[O-])c1)Nc1ccccc1Oc1ccc(C(=O)O)c(C(=O)O)c1 [Compound 174]

>  <melting point>
187.8 to 189.9 °C

$$$$
>  <MOLECULE>
COC(=O)c1ccc(C(=O)c2ccc(NC(=O)c3cccc([N+](=O)[O-])c3)cc2)cc1C(=O)OC [Compound 114]

>  <melting point>
144 to 146 °C

$$$$
>  <MOLECULE>
CC(=O)Nc1ccccc1Oc1ccc(C#N)c(C#N)c1 [Compound 94]

>  <melting point>
152.2 to 153.7 °C

$$$$
>  <MOLECULE>
N#Cc1ccc(Oc2ccccc2NC(=O)c2cccc([N+](=O)[O-])c2)cc1C#N [Compound 176]

>  <melting point>
176.5 to 178.1 °C

$$$$

For every item in the list below, what is its measured melting point?
1. O=C(Nc1ccccc1Sc1ccc(C(=O)O)c(C(=O)O)c1)c1cccc([N+](=O)[O-])c1 [Compound 125]
2. COC(=O)c1ccc(C(=O)c2ccccc2NC(=O)c2cccc([N+](=O)[O-])c2)cc1C(=O)OC [Compound 115]

["172.8 to 173.9 °C", "133 to 137 °C"]

For every item in the list below, what is its measured melting point?
1. O=C(O)c1cc(Oc2ccccc2NC(=O)c2cccc([N+](=O)[O-])c2)cc(C(=O)O)c1 [Compound 121]
2. O=C(Cc1cc([N+](=O)[O-])ccc1Cl)Nc1ccccc1Oc1ccc(C(=O)O)c(C(=O)O)c1 [Compound 175]

1: 184 to 190 °C; 2: 176 to 178.2 °C

###

Assignment: determine reported melting point for the given compounds.

>  <CHEMICAL SMILES>
O=C(O)c1ccc(Oc2ccccc2NC(=O)c2cccc([N+](=O)[O-])c2)c(C(=O)O)c1

>  <melting point>
255 to 257 °C

$$$$
>  <CHEMICAL SMILES>
O=C(Nc1ccc(Oc2ccc(C(=O)O)c(C(=O)O)c2)cc1)c1cccc([N+](=O)[O-])c1

>  <melting point>
225 to 227 °C

$$$$

Now consider the entry below.
Tell us which melting point value is on record for `O=C(O)c1cccc(NC(=O)c2ccccc2Oc2ccc(C(=O)O)c(C(=O)O)c2)c1`
202 to 208 °C
